System: IL-4 induced germline ε transcription
experimentDescription: Re-infection assay in naïve A5T4 reporter cells (BFP-/BFP+ GFP FACS)
Format: cell-based, human
testConditions: screening in the A5T4 reporter line; DL03 wt and double-residue mutants

substance: LYAAI LLHGATTASMTKPLA (LYAAILLHGATTASMTKPLA; peptide generated from combinatorial library) [DL03TS, double-residue mutant of DL03 wt]
Reporter Ratio: 1.49
--
substance: LYTS I LLHGAAAASMTKPLA (LYTSILLHGAAAASMTKPLA; peptide generated from combinatorial library) [DL03TT, double-residue mutant of DL03 wt]
Reporter Ratio: 1.43
--
substance: LYTS I LLHARTTASMTKPLA (LYTSILLHARTTASMTKPLA; peptide generated from combinatorial library) [DL03GA, double-residue mutant of DL03 wt]
Reporter Ratio: 1.67
--
substance: LYTS I LLHGATTRAMTKPLA (LYTSILLHGATTRAMTKPLA; Peptide generated from combinatorial library) [DL03AS, double-residue mutant of DL03 wt]
Reporter Ratio: 1.57
--
substance: LYTS I LLHGATTASAAKPLA (LYTSILLHGATTASAAKPLA; Peptide generated from combinatorial library) [DL03MT, double-residue mutant of DL03 wt]
Reporter Ratio: 1.30
